# melting point per entry

Examples with their reported melting point follow.
COMPOUND: Cc1cc2cc(N(C(=O)Nc3ccc(F)cc3F)c3ccccc3Cl)c(=O)oc2cc1C
melting point: 212 to 214 °C

COMPOUND: COc1cc(OC)cc(C(=O)N2CCc3cc(O)ccc3C2=O)c1
melting point: 178 to 179 °C

COMPOUND: OC(c1ccccc1)(c1ccc(C(F)(F)F)cc1)c1nccn1Cc1ccccc1 (stereo unspecified)
melting point: 167 to 169 °C

COMPOUND: CCc1ccc(C(=O)Nc2ccccc2O)cc1
melting point: 103 to 105 °C

COMPOUND: O=C(O)C1CS(=O)(=O)C2CC(=O)N12 (stereo unspecified)
melting point: 164 to 167 °C

Incoming: What value of melting point has been recorded for this entry: CCN(CC)C(=O)c1cc(-c2ccccc2)ccc1OC
Outgoing: 85 to 87 °C

Incoming: What value of melting point has been recorded for this entry: CON=C1CCC(C)(C)c2cc(C)c(-c3cc(C=C4SC(=O)NC4=O)ccc3N(C)C)cc21
Outgoing: 254 to 256 °C

Incoming: What value of melting point has been recorded for this entry: CCOC(=O)[C@@H](NS(=O)(=O)c1ccc(N2CCC(=O)CC2)cc1)C(C)C
Outgoing: 77 to 80 °C

Incoming: What value of melting point has been recorded for this entry: Cc1ccc2c3c(ccc2n1)OC[C@H](CNC[C@H]1CCc2c(c4cc(F)ccc4n2C)C1)O3
Outgoing: 127 to 129 °C

Incoming: What value of melting point has been recorded for this entry: c1ccc2c(c1)CC(Nc1ncnc3nc[nH]c13)C2
Outgoing: 300 °C

Incoming: What value of melting point has been recorded for this entry: Cc1oc(-c2ccccc2)nc1CCOc1ccc(C[C@H](NCc2ccc(F)cc2)C(=O)O)cc1
Outgoing: 184 to 186 °C

Incoming: What value of melting point has been recorded for this entry: O=c1c2cc(F)c(N3CCCC3)cc2n(CCF)c(=O)n1O
Outgoing: 228 to 230 °C

Incoming: What value of melting point has been recorded for this entry: O=C(O)CCC1OC(=O)C(O)=C1c1ccccc1 (stereo unspecified)
Outgoing: 177 to 179 °C

Incoming: What value of melting point has been recorded for this entry: O=C(N1CCCC1)C(CCN1CCC(O)(c2ccccc2)CC1)(c1ccccc1)c1ccccc1
Outgoing: 188 °C

Incoming: What value of melting point has been recorded for this entry: Oc1ccc(Cl)cc1C(O)(c1ccccc1)C1CCCCC1 (stereo unspecified)
Outgoing: 170 °C

Incoming: What value of melting point has been recorded for this entry: COC(=O)c1sc2c(c1N)c1ccccc1c(=O)n2-c1ccccc1Cl
Outgoing: 244 to 246 °C

Incoming: What value of melting point has been recorded for this entry: COc1c(N)ccc2c1C(=CC#N)CC2
Outgoing: 140 to 142 °C

Incoming: What value of melting point has been recorded for this entry: COc1ccc(N2CCCn3c2nc2c(Cl)ccc(C(OCC(F)(F)F)C4CC4)c23)c(C)n1 (stereo unspecified)
Outgoing: 158 to 160 °C

Incoming: What value of melting point has been recorded for this entry: ClC(Cl)(Cl)C1Nc2ccccc2CO1 (stereo unspecified)
Outgoing: 90 to 92 °C

Incoming: What value of melting point has been recorded for this entry: O=C1CN=C(c2ccccc2F)c2ccccc2N1
Outgoing: 181 to 182 °C

Incoming: What value of melting point has been recorded for this entry: Cc1ccc(S(=O)(=O)NCC(C)NS(=O)(=O)c2ccc(C)cc2)cc1 (stereo unspecified)
Outgoing: 105 to 107 °C

Incoming: What value of melting point has been recorded for this entry: CCn1ncnc1COc1nn2c(-c3cc(F)ccc3F)nncc2c1C(C)(C)C
Outgoing: 108 °C

Incoming: What value of melting point has been recorded for this entry: CC1CCCC(C)N1C(=O)CSC#N (stereo unspecified)
Outgoing: 81 to 82 °C
